Molecular target: Trypanosoma cruzi glucokinase (TcGlcK) (Trypanosoma cruzi, UniProt Q4E4E1);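 also: compounds supplied as 10 mM DMSO stocks (100 µL format), with a non-inhibitory compound run alongside for comparison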
Sequence (Q4E4E1 1-376): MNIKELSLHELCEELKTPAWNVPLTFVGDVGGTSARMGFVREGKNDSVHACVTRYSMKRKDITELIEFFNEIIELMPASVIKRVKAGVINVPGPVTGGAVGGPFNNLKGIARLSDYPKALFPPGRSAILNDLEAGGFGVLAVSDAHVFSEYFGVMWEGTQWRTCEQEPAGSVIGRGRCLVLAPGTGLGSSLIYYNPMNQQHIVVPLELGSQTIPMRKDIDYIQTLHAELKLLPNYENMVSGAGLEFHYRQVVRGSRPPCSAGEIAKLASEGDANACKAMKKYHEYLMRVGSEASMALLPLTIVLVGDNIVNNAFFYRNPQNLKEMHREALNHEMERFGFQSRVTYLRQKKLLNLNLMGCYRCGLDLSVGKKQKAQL
pKi: −log10 of the molar value.
Classification field: enter MET for pKi values not below 5, NOT MET for values below it.

• O=C1NC(=S)S/C1=C/c1ccc(O)cc1 [Inhibitor 66] = NOT MET
• Cc1cc2c(c(O)c1-c1c(C)cc3c(c1O)/C(=C/NC(C)CCc1ccco1)C(=O)C(O)=C3C(C)C)/C(=C/NC(C)CCc1ccco1)C(=O)C(O)=C2C(C)C (stereo not drawn) [Inhibitor 73] = MET
• Cc1cc2c(C(C)C)c(O)c(O)c(/C=N/n3c(=O)[nH][nH]c3=O)c2c(O)c1-c1c(C)cc2c(C(C)C)c(O)c(O)c(/C=N/n3c(=O)[nH][nH]c3=O)c2c1O (atropisomer, axis not shown) [Inhibitor 33] = NOT MET
• Cc1ccc(OCC/N=C/c2c(O)c(O)c(C(C)C)c3cc(C)c(-c4c(C)cc5c(C(C)C)c(O)c(O)c(/C=N/CCOc6ccc(C)cc6)c5c4O)c(O)c23)cc1 [Inhibitor 10] = MET
• Cc1ccc(OCC/N=C/c2c(O)c(O)c(C(C)C)c3cc(C)c(-c4c(C)cc5c(C(C)C)c(O)c(O)c(/C=N/CCOc6ccc(C)cc6Br)c5c4O)c(O)c23)c(Br)c1 (atropisomer, axis not shown) [Inhibitor 77] = NOT MET
